cell viability values, listed per item
# System: HepG2
# test-protocol: cell viability relative to DMSO; higher = less toxic
# run-conditions: 72 h; 100 nM
measure: cell viability (%)

# given-smiles, measure, measurement-units, recorded-measurement
records = [
    ("O=C(O)c1c2ccccc2cc2ccccc12", "cell viability", "%", 102),
    ("Cn1cc(-c2[nH]c3cc(NC(=O)[C@H](N)C4CCCCC4)cc4c3c2C=NNC4=O)cn1", "cell viability", "%", 91.5),
    ("CC(=O)N1CCC[C@H]1C(=O)N[C@@H](Cc1cnc[nH]1)C(=O)N[C@@H](CO)C(=O)N[C@@H](CS)C(=O)N[C@@H](CC(N)=O)C(N)=O", "cell viability", "%", 106),
    ("COc1ccc(C(C)(C)C)cc1CN[C@H]1C2CCN(CC2)[C@H]1C(c1ccccc1)c1ccccc1", "cell viability", "%", 98.9),
]

###

# Tested on: Vero E6
# test-protocol: cell viability relative to DMSO; higher = less toxic
# run-conditions: 72 h; 10000 nM
Mark each entry t if its cell viability sits below 90%, and f for all others.

# compound, class-label
rows = [
    ("COc1cc(Br)c(S(=O)(=O)Nc2ccc(C(F)(F)F)c(O[C@@H]3CCN(C)C3)c2)cc1OC", "f"),
    ("CN(C)c1ccc(C(=O)NCCCCCCC(=O)NO)cc1", "t"),
    ("Cc1cccc(C)c1NC(=O)c1ccccc1C(=O)O [ftaxilide]", "f"),
    ("C[C@@H](Oc1ccc(Cl)cc1)c1ccnc2ncnn12", "f"),
    ("Clc1ccccc1CN1CCc2sccc2C1", "f"),
    ("CCN(CC)CCOc1ccc2c(c1)C(=O)c1cc(OCCN(CC)CC)ccc1-2", "t"),
    ("CC(Oc1c(Cl)cccc1Cl)C1=NCCN1 (stereo not given)", "f"),
    ("COCCNC(=O)Cn1cnc([N+](=O)[O-])n1", "f"),
    ("CCN1CCN(Cc2ccc(-c3cc4c(N[C@H](C)c5ccccc5)ncnc4[nH]3)cc2)CC1", "t"),
]

###

cell viability values, listed per item
# Tested on: Calu-3
# test-protocol: cell viability relative to DMSO; higher = less toxic
# run-conditions: 72 h; 10000 nM

# given-smiles, measurement-units, cell viability
measured = [
    ("C[C@@H]1COCCN1c1cc(C2(S(C)(=O)=O)CC2)nc(-c2cccc3[nH]ccc23)n1", "%", 34.6),
    ("CCN(CC)CCOc1ccc2c(c1)C(=O)c1cc(OCCN(CC)CC)ccc1-2", "%", 78.8),
    ("Cc1noc(NS(=O)(=O)c2cccc3c(N(C)C)cccc23)c1C", "%", 103),
    ("CCOC(=O)c1ccc(O)cc1", "%", 92),
    ("CCOC(=O)[C@@H](C)Oc1cccc2c(=O)n(CC(=O)Nc3ccc4c(c3)OCCO4)ccc12", "%", 89.8),
]

###

cell viability values, listed per item
# Test system: Calu-3
# test-protocol: cell viability relative to DMSO; higher = less toxic
# run-conditions: 72 h; 100 nM

# given-smiles, cell viability / %
rows = [
    ("C[C@H]1c2cccc(O)c2C(=O)C2=C(O)[C@]3(O)C(=O)C(C(N)=O)=C(O)[C@@H](N(C)C)[C@@H]3[C@@H](O)[C@@H]21", 107),
    ("CC[C@H](C)[C@@H]1NC(=O)[C@H](Cc2ccc(OC)cc2)NC(=O)CCCSC[C@@H](C(=O)N2CCC[C@H]2C(=O)N[C@@H](CC(C)C)C(=O)NCC(N)=O)NC(=O)[C@H](CC(N)=O)NC(=O)[C@H](CCC(N)=O)NC1=O", 102),
    ("COc1ccc(C(C)(C)C)cc1CN[C@H]1C2CCN(CC2)[C@H]1C(c1ccccc1)c1ccccc1", 110),
    ("C[C@@H]1COCCN1c1cc(C2(S(C)(=O)=O)CC2)nc(-c2cccc3[nH]ccc23)n1", 91.8),
    ("CC1(C)CCC2=C(O1)c1ccccc1C(=O)C2=O", 110),
    ("CCCC[P+](CCCC)(CCCC)Cc1ccc(NC(=O)[C@H](Cc2ccc3ccccc3c2)N/C(=N/C2CCCCC2)NC2CCCCC2)cc1", 97.5),
]

###

# Test system: U2OS
# test-protocol: cell viability relative to DMSO; higher = less toxic
# run-conditions: 72 h; 1 nM
measure: cell viability (%)

# molecule, recorded-measurement
records = [
    ("COC(=O)c1ccccc1O [methyl-salicylate]", 98.4),
    ("O[C@@H](COc1cccc2ncccc12)CN1CCN([C@@H]2c3ccccc3[C@@H]3[C@H](c4ccccc42)C3(F)F)CC1", 99),
    ("COc1ccc(COc2ccc(Cc3cnc(N)nc3N)cc2OC)cc1", 99.2),
    ("O=C(O)c1c2ccccc2cc2ccccc12", 100),
    ("Cc1ccc(S(=O)(=O)OCC(=O)Nc2ccc(C(=O)O)c(O)c2)cc1", 103),
    ("COc1ccc(C(=O)c2c(C)n(CCN3CCOCC3)c3cc(I)ccc23)cc1", 96.2),
    ("COc1ccccc1OCC(O)CN1CCN(CC(=O)Nc2c(C)cccc2C)CC1 (centres undefined)", 98.6),
    ("CC(=O)CC(c1ccccc1)c1c(O)c2ccccc2oc1=O (centres undefined)", 96),
    ("COc1cc(C)nc(-n2nc(C)cc2OC)n1 [epirizole]", 95.1),
]

###

cell viability values, listed per item
# Tested on: Vero E6
# test-protocol: cell viability relative to DMSO; higher = less toxic
# run-conditions: 72 h; 1000 nM

# molecule, target-under-test, measurement-units, cell viability
rows = [
    ("Nc1ccc(C(=O)O)c(O)c1 [aminosalicylate]", "Vero E6", "%", 104),
    ("CN1CC(=O)N=C1NC(=O)Nc1cccc(Cl)c1 [fenobam]", "Vero E6", "%", 100),
    ("COc1ccccc1N1CCN(CCN2C(=O)c3ccccc3C(C)(C)C2=O)CC1 [ARC-239]", "Vero E6", "%", 102),
    ("CC(=O)O[C@]1(C(C)=O)CC[C@H]2[C@@H]3C[C@H](C)C4=CC(=O)C=C[C@]4(C)[C@@]3(F)[C@@H](O)C[C@@]21C [fluorometholone-acetate]", "Vero E6", "%", 95.7),
    ("NC[C@H]1O[C@H](O[C@H]2[C@H](O)[C@@H](O[C@H]3O[C@H](CO)[C@@H](O)[C@H](N)[C@H]3O)[C@H](N)C[C@@H]2N)[C@H](O)[C@@H](O)[C@@H]1O [kanamycin]", "Vero E6", "%", 99),
    ("O=C(N[C@H]1CCN(C(=O)c2cc(C(F)(F)F)cc(C(F)(F)F)c2)[C@H](Cc2ccc(Cl)cc2)C1)c1ccnc2ccccc12 [AV-608]", "Vero E6", "%", 97.5),
    ("CC(C)(C)c1ccc(C(O)CCCN2CCC(C(O)(c3ccccc3)c3ccccc3)CC2)cc1 (centres undefined) [terfenadine]", "Vero E6", "%", 101),
    ("Cn1cc(-c2[nH]c3cc(NC(=O)[C@H](N)C4CCCCC4)cc4c3c2C=NNC4=O)cn1", "Vero E6", "%", 95.3),
    ("CC(C)(C)NCC(O)c1ccc(O)c(CO)c1 (centres undefined) [albuterol]", "Vero E6", "%", 97.8),
    ("COc1ccc(N(C)c2nc(C)nc3ccccc23)cc1 [verubulin]", "Vero E6", "%", 23.9),
    ("CC(C)C[C@@H](N)C(=O)N[C@H]1C(=O)N[C@@H](CC(N)=O)C(=O)N[C@H]2C(=O)N[C@H]3C(=O)N[C@H](C(=O)N[C@H](C(=O)O)c4cc(O)cc(O)c4-c4cc3ccc4O)[C@H](O)c3ccc(c(Cl)c3)Oc3cc2cc(c3O[C@@H]2O[C@H](CO)[C@@H](O)[C@H](O)[C@H]2O[C@H]2C[C@](C)(N)[C@H](O)[C@H](C)O2)Oc2ccc(cc2Cl)[C@H]1O [norvancomycin]", "Vero E6", "%", 97),
    ("O[C@@H](COc1cccc2ncccc12)CN1CCN([C@@H]2c3ccccc3[C@@H]3[C@H](c4ccccc42)C3(F)F)CC1 [zosuquidar]", "Vero E6", "%", 98.5),
    ("O=C1CCC(N2C(=O)c3ccccc3C2=O)C(=O)N1 (centres undefined) [thalidomide]", "Vero E6", "%", 97.3),
    ("CCN(CC)CCOC(=O)C1(C2CCCCC2)CCCCC1 [dicycloverine]", "Vero E6", "%", 92.6),
]

###

cell viability values, listed per item
# Test system: HepG2
# test-protocol: cell viability relative to DMSO; higher = less toxic
# run-conditions: 72 h; 1 nM
measure: cell viability (%)

# compound, recorded-measurement
measured = [
    ("CSc1ccc2c(c1)N(CCC1CCCCN1C)c1ccccc1S2 (centres undefined)", 105),
    ("CCCc1c(OCC(O)COc2ccc3c(=O)cc(C(=O)O)oc3c2CCC)ccc(C(C)=O)c1O (centres undefined)", 99.8),
    ("Cc1c(CN(C)C(=O)/C=C/c2cnc3c(c2)CCC(=O)N3)oc2ccccc12", 110),
    ("CN(C)c1ccccc1CN1CCCN(Cc2ccccc2N(C)C)C1c1ccncc1", 100),
    ("COc1ccc(C(=O)c2c(C)n(CCN3CCOCC3)c3ccccc23)cc1", 100),
    ("Clc1ccc([C@]23CNC[C@H]2C3)cc1Cl", 89.5),
    ("Clc1ccc(N/N=C(\\c2ccccc2)c2ccccn2)nc1", 92.7),
    ("CC(C)C[C@@H](N)C(=O)N[C@H]1C(=O)N[C@@H](CC(N)=O)C(=O)N[C@H]2C(=O)N[C@H]3C(=O)N[C@H](C(=O)N[C@H](C(=O)O)c4cc(O)cc(O)c4-c4cc3ccc4O)[C@H](O)c3ccc(c(Cl)c3)Oc3cc2cc(c3O[C@@H]2O[C@H](CO)[C@@H](O)[C@H](O)[C@H]2O[C@H]2C[C@](C)(N)[C@H](O)[C@H](C)O2)Oc2ccc(cc2Cl)[C@H]1O", 102),
    ("CC1Oc2cc(cnc2N)-c2c(nn(C)c2C#N)CN(C)C(=O)c2ccc(F)cc21 (centres undefined)", 95),
    ("COc1ccc2[nH]c([S+]([O-])Cc3ncc(C)c(OC)c3C)nc2c1 (centres undefined)", 102),
    ("COC(=O)c1ccccc1O [methyl-salicylate]", 112),
    ("Cc1cc(Nc2ncnc3ccc(-c4ccc(CNCCS(C)(=O)=O)o4)cc23)ccc1Oc1ccn2ncnc2c1", 98.4),
    ("C[C@H](NC(=O)C(C)(C)Oc1ccc(C(F)(F)F)cn1)[C@@H](Cc1ccc(Cl)cc1)c1cccc(C#N)c1", 105),
    ("CC(=O)Nc1ccc(S(=O)(=O)c2ccc(NC(C)=O)cc2)cc1", 105),
    ("Cc1ncc[nH]1", 95.3),
    ("Cn1cc(-c2ccc3ncc(Cc4ccc5ncccc5c4)n3n2)cn1", 105),
    ("NCCCCCNCC12CC3CC(CC(C3)C1)C2", 106),
    ("CCS(=O)(=O)N1CCC([C@@H](C)n2c(C)c(C(=O)NCc3c(OC)cc(C)[nH]c3=O)c3ccccc32)CC1", 104),
    ("CCCCCCCCN=c1ccn(CCCCCCCCCCn2ccc(=NCCCCCCCC)cc2)cc1", 89.6),
]

// provenance: the supplement of paper PMC13380429
